- target desc: KIAA 1361 (baculovirus expressed human KIAA 1361 kinase domain 2-322) (Homo sapiens)
- Sequence (Q7L7X3 2-322): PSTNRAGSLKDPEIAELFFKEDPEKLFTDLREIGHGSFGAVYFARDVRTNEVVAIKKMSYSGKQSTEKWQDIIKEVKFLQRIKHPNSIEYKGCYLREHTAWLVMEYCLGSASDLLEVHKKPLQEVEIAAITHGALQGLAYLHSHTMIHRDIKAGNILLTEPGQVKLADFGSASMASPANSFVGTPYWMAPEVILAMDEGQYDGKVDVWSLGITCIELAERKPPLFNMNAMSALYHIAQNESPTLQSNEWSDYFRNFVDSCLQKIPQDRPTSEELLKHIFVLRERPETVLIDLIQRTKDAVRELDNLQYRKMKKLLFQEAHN

# molecule, target desc, IC50
rows = [
    ("O=C(CNC(=O)COc1ccc(Br)cc1)NCc1ccc(Cl)c(Cl)c1 [Entry 25]", "KIAA 1361 (baculovirus expressed human KIAA 1361 kinase domain 2-322) (Homo sapiens)", "50 to 500 nM"),
    ("O=C(CNC(=O)c1ccc(O)cc1)NC1CCCc2ccccc21 (stereo not drawn) [Entry 56]", "KIAA 1361 (baculovirus expressed human KIAA 1361 kinase domain 2-322) (Homo sapiens)", "50 to 500 nM"),
    ("O=C(COc1ccc(OCc2ccccc2)cc1)NCC(=O)NC1CCCc2ccccc21 (stereo not drawn) [Entry 2]", "KIAA 1361 (baculovirus expressed human KIAA 1361 kinase domain 2-322) (Homo sapiens)", "50 to 500 nM"),
    ("CCc1ccc(-c2ccc(C(=O)NCC(=O)NC3CN(C(=O)OC(C)(C)C)Cc4ccccc43)cc2)cc1 (stereo not drawn) [Entry 95]", "KIAA 1361 (baculovirus expressed human KIAA 1361 kinase domain 2-322) (Homo sapiens)", "> 5000 nM"),
    ("CCCCOc1ccc(NC(=O)N[C@@H](COCc2ccccc2)C(=O)NCCc2ccccc2)cc1 [Entry 21]", "KIAA 1361 (baculovirus expressed human KIAA 1361 kinase domain 2-322) (Homo sapiens)", "50 to 500 nM"),
    ("CCc1ccc(-c2ccc(C(=O)NCC(=O)Nc3cccc4ccccc34)cc2)cc1 [Entry 67]", "KIAA 1361 (baculovirus expressed human KIAA 1361 kinase domain 2-322) (Homo sapiens)", "< 50 nM"),
    ("O=C(CNC(=O)c1ccc(C2CCCCC2)cc1)NC1CCCc2ccccc21 (stereo not drawn) [Entry 50]", "KIAA 1361 (baculovirus expressed human KIAA 1361 kinase domain 2-322) (Homo sapiens)", "50 to 500 nM"),
    ("COc1ccc2nc(NC(=O)CNC(=O)CC(NC(=O)c3ccccc3)c3ccccc3)sc2c1 (stereo not drawn) [Entry 63]", "KIAA 1361 (baculovirus expressed human KIAA 1361 kinase domain 2-322) (Homo sapiens)", "< 50 nM"),
    ("CCCCCOc1ccc(C(=O)NC(CC(C)C)C(=O)NC2CCCc3ccccc32)cc1 (stereo not drawn) [Entry 35]", "KIAA 1361 (baculovirus expressed human KIAA 1361 kinase domain 2-322) (Homo sapiens)", "> 5000 nM"),
]

###

# IC50 per entry
- target desc: JIK (Homo sapiens)
- Sequence (Q9H2K8 2-318): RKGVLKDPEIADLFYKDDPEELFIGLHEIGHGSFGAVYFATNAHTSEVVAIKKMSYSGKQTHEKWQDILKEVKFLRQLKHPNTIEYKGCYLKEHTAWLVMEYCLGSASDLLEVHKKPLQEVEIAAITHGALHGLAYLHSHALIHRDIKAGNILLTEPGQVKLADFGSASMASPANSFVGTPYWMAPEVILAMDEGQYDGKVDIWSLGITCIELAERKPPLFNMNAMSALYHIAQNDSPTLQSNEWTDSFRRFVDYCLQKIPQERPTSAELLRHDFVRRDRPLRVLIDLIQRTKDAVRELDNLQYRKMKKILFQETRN
assay endpoint: IC50

# compound, measurement
records = [
    ("O=C(CC(NC(=O)c1ccccc1)c1ccccc1)NCC(=O)NC1CCCc2ccccc21 (stereo not drawn)", "> 5000 nM"),
    ("O=C(CC(NC(=O)c1ccccc1)c1ccccc1)NCC(=O)Nc1nccs1 (stereo not drawn)", "50 to 500 nM"),
    ("O=C(CN1CCN(S(=O)(=O)CCc2cccc3ccccc23)CC1)Nc1ccccn1", "< 50 nM"),
    ("O=C(CNC(=O)c1ccc(N2CCOCC2)cc1)NC1CCCc2ccccc21 (stereo not drawn)", "500 to 5000 nM"),
    ("CCc1ccc(-c2ccc(C(=O)NCC(=O)NC3CCCCC3)cc2)cc1", "> 5000 nM"),
    ("CCCCCOc1ccc(C(=O)NC(C)C(=O)NC2CCc3ccccc3C2)cc1 (stereo not drawn)", "50 to 500 nM"),
    ("O=C(CC(NC(=O)c1ccccc1)c1ccccc1)NCC(=O)Nc1nc2ccccc2s1 (stereo not drawn)", "< 50 nM"),
    ("O=C(NC1CCCc2ccccc21)C(NC(=O)C(c1ccccc1)C1CCCC1)c1cccnc1 (stereo not drawn)", "< 50 nM"),
    ("O=C(CNC(=O)c1ccc(-c2cnco2)cc1)NC1CCCc2ccccc21 (stereo not drawn)", "< 50 nM"),
]
